Hey, just so you know, these numbers are from paper PMC6268995.

TARGET_OF_ASSAY: Aβ1–40 aggregates (Homo sapiens)
Construct: β-amyloid(1–40) were purchased from AnaSpec; purchased AnaSpec (San Jose, CA, USA)
Sequence (P05067 672-711 limits assumed): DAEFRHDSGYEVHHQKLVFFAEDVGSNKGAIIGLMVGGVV
ASSAY_COMMENT: Competition binding assay on Aβ1–40 aggregates using [125I]TZDM as radio-ligand
APPLIED_CONDITIONS: Aβ1–40 aggregates against [125I]TZDM; triplicate, mean ± SD
Readings of pKi for the listed compounds
Reminder that pKi is minus the log10 of a molar concentration.

{"COMPOUND": "Ic1ccc(/C=C/c2ccc3ncccc3c2)cc1 [Compound 17, (E)-6-(4-Iodostyryl)quinoline]", "pKi": 8.07}
{"COMPOUND": "Cc1ccc(/C=C/c2ccc3ncccc3c2)cc1 [Compound 18, (E)-6-(4-Methylstyryl)quinoline]", "pKi": 6.54}
{"COMPOUND": "Fc1ccc(/C=C/c2ccc3ncccc3c2)cc1 [Compound 14, (E)-6-(4-Fluorostyryl)quinoline]", "pKi": 6.57}
{"COMPOUND": "Brc1ccc(/C=C/c2ccc3ncccc3c2)cc1 [Compound 16, (E)-6-(4-Bromostyryl)quinoline]", "pKi": 7.63}
{"COMPOUND": "COc1ccc(/C=C/c2ccc3[nH]ccc3c2)cc1 [Compound 10, (E)-5-(4-Methoxystyryl)-1H-indole]", "pKi": 7.49}

Task: Give the value of pKi reported for the following: CN(C)c1ccc(-c2nc3ccc(I)cc3s2)cc1 [TZDM, reference compound]
Result: 8.38

Task: Give the value of pKi reported for the following: Clc1ccc(/C=C/c2ccc3ncccc3c2)cc1 [Compound 15, (E)-6-(4-Chlorostyryl)quinoline]
Result: 7.35

Task: Give the value of pKi reported for the following: Brc1ccc(/C=C/c2ccc3[nH]ccc3c2)cc1 [Compound 7, (E)-5-(4-Bromostyryl)-1H-indole]
Result: 7.79

Task: Give the value of pKi reported for the following: Ic1ccc(/C=C/c2ccc3[nH]ccc3c2)cc1 [Compound 8, (E)-5-(4-Iodostyryl)-1H-indole]
Result: 8.39

Task: Give the value of pKi reported for the following: Clc1ccc(/C=C/c2ccc3[nH]ccc3c2)cc1 [Compound 6, (E)-5-(4-Chlorostyryl)-1H-indole]
Result: 7.29

Task: Give the value of pKi reported for the following: Fc1ccc(/C=C/c2ccc3[nH]ccc3c2)cc1 [Compound 5, (E)-5-(4-Fluorostyryl)-1H-indole]
Result: 7.05

Task: Give the value of pKi reported for the following: C(=C\c1ccc2[nH]ccc2c1)/c1ccccc1 [Compound 4, (E)-5-Styryl-1H-indole]
Result: 7.60
